// reported IC50 per item
System tested: various mutants of kinase EGFR (BaF3 cell lines stably transfected with kinase) (Homo sapiens)
Construct: other: BaF3 cells stably transfected with EGFR Δ19Del; MTS, 48 h; other: BaF3 cell line stably transfected with EGFR Δ19Del
Protocol notes: Growth inhibitory activity of compounds on BaF3 cell lines stably transfected with kinase (MTS, 48 h)
Format: cell-based
Condition parameters: BaF3 cells stably transfected with EGFR Δ19Del, read-out: IC50, growth inhibition, Δ19Del

# count of solved cases: 5
CCc1cc(Nc2ncc(Cl)c(Nc3ccc4nccnc4c3N(C)S(=O)(=O)CC)n2)c(OC)cc1N1CCN(C)CC1 [Compound I-236] : ≤ 50 nM
CCc1cc(Nc2ncc(Br)c(Nc3ccc4nccnc4c3N(C)S(=O)(=O)C(F)(F)F)n2)c(OC(F)(F)F)cc1N1CCC(N2CCN(C)CC2)CC1 [Compound I-126] : 500 to 2500 nM
CCN(c1c(Nc2nc(Nc3cc(C)c(N4CCC(N(C)C)CC4)cc3OC)ncc2Br)ccc2nccnc12)S(C)(=O)=O [Compound I-299] : ≤ 50 nM
COc1cc(N2CCC(N3CCN(C)CC3)CC2)c(C2CC2)cc1Nc1ncc(Cl)c(Nc2ccc3nccnc3c2N(C)S(C)(=O)=O)n1 [Compound I-287] : 50 to 500 nM
CCN(c1c(Nc2nc(Nc3cc(CC4CC4)c(N4CCC(N5CCN(C)CC5)CC4)cc3OC)ncc2Cl)ccc2nccnc12)S(C)(=O)=O [Compound I-229] : 50 to 500 nM

Form field IC50, entry COc1cc(N2CCC(N(C)C)C2)c(C)cc1Nc1ncc(Cl)c(Nc2ccc3nccnc3c2N(C2CC2)S(C)(=O)=O)n1 (stereo not drawn) [Compound I-246] : ≤ 50 nM

----------
System tested: various mutants of kinase EGFR (BaF3 cell lines stably transfected with kinase) (Homo sapiens, UniProt P00533, T790M/C797S, form not given)
Construct: other: BaF3 cells stably transfected with EGFR Δ19Del/T790M/C797S; MTS, 48; other: BaF3 cell line stably transfected with EGFR Δ19Del/T790M/C7
Sequence (P00533 with tags, fused parts or gaps DEL746-750/T790M/C797S, form open): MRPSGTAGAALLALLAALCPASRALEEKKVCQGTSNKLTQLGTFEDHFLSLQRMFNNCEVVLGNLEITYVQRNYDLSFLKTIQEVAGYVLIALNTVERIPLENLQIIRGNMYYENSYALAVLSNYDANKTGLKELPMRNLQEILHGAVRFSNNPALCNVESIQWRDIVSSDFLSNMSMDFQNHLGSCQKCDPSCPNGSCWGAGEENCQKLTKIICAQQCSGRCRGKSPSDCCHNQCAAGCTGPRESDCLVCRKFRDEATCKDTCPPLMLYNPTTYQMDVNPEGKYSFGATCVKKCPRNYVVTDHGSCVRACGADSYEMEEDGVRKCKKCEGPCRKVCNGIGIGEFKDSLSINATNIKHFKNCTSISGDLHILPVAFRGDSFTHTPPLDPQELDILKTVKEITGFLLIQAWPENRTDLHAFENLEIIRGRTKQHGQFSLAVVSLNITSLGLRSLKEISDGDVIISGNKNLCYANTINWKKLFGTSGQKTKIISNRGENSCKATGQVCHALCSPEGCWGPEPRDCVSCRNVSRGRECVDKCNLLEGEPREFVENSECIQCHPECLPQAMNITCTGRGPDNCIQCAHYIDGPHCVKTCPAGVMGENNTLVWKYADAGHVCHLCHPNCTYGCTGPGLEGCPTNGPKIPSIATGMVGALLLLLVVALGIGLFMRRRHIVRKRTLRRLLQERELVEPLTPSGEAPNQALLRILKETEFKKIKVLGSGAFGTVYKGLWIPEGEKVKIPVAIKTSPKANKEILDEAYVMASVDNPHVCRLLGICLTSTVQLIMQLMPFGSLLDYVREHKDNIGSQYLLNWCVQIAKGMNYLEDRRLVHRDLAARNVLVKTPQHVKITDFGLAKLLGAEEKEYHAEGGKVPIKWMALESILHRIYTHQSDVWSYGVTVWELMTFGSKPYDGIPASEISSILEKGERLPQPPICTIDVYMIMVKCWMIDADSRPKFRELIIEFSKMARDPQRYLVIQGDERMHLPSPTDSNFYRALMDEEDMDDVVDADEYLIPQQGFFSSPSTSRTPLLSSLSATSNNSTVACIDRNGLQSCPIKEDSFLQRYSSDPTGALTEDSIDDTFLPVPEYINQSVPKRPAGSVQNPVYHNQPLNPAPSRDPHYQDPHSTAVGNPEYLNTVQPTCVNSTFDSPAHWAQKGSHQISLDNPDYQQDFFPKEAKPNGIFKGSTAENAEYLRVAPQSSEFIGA
Protocol notes: Growth inhibitory activity of compounds on BaF3 cell lines stably transfected with kinase (MTS, 48 h)
Format: cell-based
Condition parameters: BaF3 cell line stably transfected with EGFR Δ19Del/T790M/C797S, read-out: Δ19Del/T790M/ C797S growth inhibitory activity IC50
pIC50: −log10 of the molar value.
Reported metric: pIC50

# count of solved cases: 3
CCc1cc(Nc2ncc(Br)c(Nc3ccc4nccnc4c3N(C)S(C)(=O)=O)n2)c(OC)cc1NCCO [Compound I-390] : 6.30 to 7.30
COc1ccc(N2CCC(O)CC2)cc1Nc1ncc(OC)c(Nc2ccc3nccnc3c2N(C)S(C)(=O)=O)n1 [Compound I-366] : ≥ 7.30
CCc1cc(Nc2nc(Nc3ccc4nccnc4c3N(C)S(C)(=O)=O)c3[nH]ccc3n2)c(OC)cc1N1CCC(N(C)C)C1 (stereo not shown) [II-1-36] : 5.60 to 6.30

Let us examine a further case.
Form field pIC50, entry CCc1cc(Nc2ncc(Br)c(Nc3ccc4nccnc4c3NS(=O)(=O)C(C)C)n2)c(OC)cc1N1CCC(N2CCN(C)CC2)CC1 [Compound I-415] : ≥ 7.30

----------
// reported pIC50 per item
System tested: various mutants of kinase EGFR (BaF3 cell lines stably transfected with kinase) (Homo sapiens, UniProt P00533, T790M, form not given)
Construct: other: BaF3 cells stably transfected with EGFR Δ19Del/T790M; MTS, 48 h; other: BaF3 cell line stably transfected with EGFR Δ19Del/T790M; MTS, 48
Sequence (P00533 with tags, fused parts or gaps DEL746-750/T790M, form open): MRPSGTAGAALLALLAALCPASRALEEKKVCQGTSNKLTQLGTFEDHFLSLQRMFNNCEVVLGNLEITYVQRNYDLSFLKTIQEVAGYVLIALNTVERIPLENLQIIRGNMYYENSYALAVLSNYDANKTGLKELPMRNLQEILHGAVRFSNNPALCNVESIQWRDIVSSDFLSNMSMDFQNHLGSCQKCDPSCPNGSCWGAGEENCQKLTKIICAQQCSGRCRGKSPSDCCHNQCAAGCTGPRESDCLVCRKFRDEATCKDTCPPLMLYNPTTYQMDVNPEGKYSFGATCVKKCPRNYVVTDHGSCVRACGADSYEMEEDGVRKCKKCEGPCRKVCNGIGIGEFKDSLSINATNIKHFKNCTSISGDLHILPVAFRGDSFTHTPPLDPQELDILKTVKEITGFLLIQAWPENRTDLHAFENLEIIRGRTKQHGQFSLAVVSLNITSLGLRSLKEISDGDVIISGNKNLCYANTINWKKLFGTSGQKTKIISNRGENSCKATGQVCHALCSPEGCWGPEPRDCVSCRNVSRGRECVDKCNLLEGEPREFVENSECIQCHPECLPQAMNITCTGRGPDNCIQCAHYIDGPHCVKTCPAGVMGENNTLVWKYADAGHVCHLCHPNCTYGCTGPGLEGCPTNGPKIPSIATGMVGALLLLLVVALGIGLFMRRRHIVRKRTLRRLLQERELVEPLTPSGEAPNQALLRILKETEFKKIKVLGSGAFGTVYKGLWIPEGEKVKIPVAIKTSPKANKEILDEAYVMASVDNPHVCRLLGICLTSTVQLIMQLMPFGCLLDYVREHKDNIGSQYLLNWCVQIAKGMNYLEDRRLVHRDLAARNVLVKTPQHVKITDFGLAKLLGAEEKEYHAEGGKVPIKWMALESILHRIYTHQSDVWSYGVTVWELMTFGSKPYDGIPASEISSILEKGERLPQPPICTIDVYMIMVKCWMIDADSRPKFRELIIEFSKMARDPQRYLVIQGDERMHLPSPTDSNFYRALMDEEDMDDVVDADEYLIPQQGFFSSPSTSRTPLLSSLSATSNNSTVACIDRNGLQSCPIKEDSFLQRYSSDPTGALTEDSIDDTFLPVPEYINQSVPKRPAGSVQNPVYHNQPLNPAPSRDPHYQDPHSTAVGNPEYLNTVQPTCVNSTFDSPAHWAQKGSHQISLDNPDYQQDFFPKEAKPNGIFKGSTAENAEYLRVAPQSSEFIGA
Protocol notes: Growth inhibitory activity of compounds on BaF3 cell lines stably transfected with kinase (MTS, 48 h)
Type: cell-based
Condition parameters: BaF3 cells stably transfected with EGFR Δ19Del/T790M, read-out: IC50, growth inhibition, Δ19Del/T790M
pIC50: −log10 of the molar value.

CCc1cc(Nc2ncc(Br)c(Nc3ccc4nccnc4c3N(CC)S(C)(=O)=O)n2)c(OC)cc1N1CCC(N2CCN(C)CC2)CC1 : ≥ 7.30

Form field pIC50, entry COc1cc(N2CCC(N(C)C)CC2)c(C)cc1Nc1ncc(Br)c(Nc2ccc3nccnc3c2N(C)S(=O)(=O)C2CC2)n1 : ≥ 7.30

Form field pIC50, entry C=Cc1cc(Nc2ncc(F)c(Nc3ccc4nccnc4c3N(C)S(C)(=O)=O)n2)c(OC(F)(F)F)cc1N1CCC(N2CCN(C)CC2)CC1 : 6.30 to 7.30
